- TEST SYSTEM: Lysosomal acid glucosylceramidase (Mus musculus)
- MEASUREMENT DESCRIPTION: Compound tested for inhibitory activity against beta-glucocerebrosidase enzyme
QUANTITY: IC50 (nM)
The answer is to be given in nM; state only the numeric part.

# annotated cases, reported IC50 shown
>>> reported_measurement("CCCCCCCCCC(=O)N[C@@H](CN[C@@H]1C=C(CO)[C@@H](O)[C@H](O)[C@@H]1O)[C@H](O)c1ccccc1")
500
>>> reported_measurement("CCCCCCCCCC(=O)N[C@@H](CN[C@@H]1C=C(CO)[C@@H](O)[C@H](O)[C@@H]1O)[C@@H](O)c1ccccc1")
300

INPUT: Recall and state the measured IC50 for CCCCCCCCCC(=O)N[C@H](CN[C@@H]1C=C(CO)[C@@H](O)[C@H](O)[C@@H]1O)[C@H](O)c1ccccc1 .
OUTPUT: 700

INPUT: Specify IC50 for CCCCCCCCCC(=O)N[C@@H](CNC1CC(CO)C(O)C(O)C1O)[C@H](O)c1ccccc1 (stereo partly drawn) and stop.
OUTPUT: 5000

INPUT: Note down IC50 recorded for CCCCCCCCCC(=O)N[C@H](CN[C@@H]1C=C(CO)[C@@H](O)[C@H](O)[C@@H]1O)[C@@H](O)c1ccccc1
OUTPUT: 700

---

- TEST SYSTEM: Ceramide glucosyltransferase (Homo sapiens, UniProt Q16739)
- Sequence (Q16739 whole entry): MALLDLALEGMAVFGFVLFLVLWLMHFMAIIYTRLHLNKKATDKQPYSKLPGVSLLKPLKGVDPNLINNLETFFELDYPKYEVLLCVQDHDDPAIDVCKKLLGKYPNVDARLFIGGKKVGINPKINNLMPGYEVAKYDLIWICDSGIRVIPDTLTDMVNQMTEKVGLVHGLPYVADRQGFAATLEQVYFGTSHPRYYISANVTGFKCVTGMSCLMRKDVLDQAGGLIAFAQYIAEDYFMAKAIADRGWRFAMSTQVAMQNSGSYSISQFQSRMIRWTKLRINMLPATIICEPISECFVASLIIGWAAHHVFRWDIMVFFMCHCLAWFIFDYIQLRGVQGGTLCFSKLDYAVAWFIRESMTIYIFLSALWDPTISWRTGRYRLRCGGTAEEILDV
- MEASUREMENT DESCRIPTION: Compound tested for inhibitory activity against glucosylceramide synthase enzyme
QUANTITY: IC50

INPUT: Write down IC50 measured for item CCCCCCCCCC(=O)N[C@H](CN1CCOCC1)[C@H](O)c1ccccc1
OUTPUT: 23 µM

---

- TEST SYSTEM: Lysosomal acid glucosylceramidase (Mus musculus, UniProt P17439)
- Sequence (P17439 whole entry): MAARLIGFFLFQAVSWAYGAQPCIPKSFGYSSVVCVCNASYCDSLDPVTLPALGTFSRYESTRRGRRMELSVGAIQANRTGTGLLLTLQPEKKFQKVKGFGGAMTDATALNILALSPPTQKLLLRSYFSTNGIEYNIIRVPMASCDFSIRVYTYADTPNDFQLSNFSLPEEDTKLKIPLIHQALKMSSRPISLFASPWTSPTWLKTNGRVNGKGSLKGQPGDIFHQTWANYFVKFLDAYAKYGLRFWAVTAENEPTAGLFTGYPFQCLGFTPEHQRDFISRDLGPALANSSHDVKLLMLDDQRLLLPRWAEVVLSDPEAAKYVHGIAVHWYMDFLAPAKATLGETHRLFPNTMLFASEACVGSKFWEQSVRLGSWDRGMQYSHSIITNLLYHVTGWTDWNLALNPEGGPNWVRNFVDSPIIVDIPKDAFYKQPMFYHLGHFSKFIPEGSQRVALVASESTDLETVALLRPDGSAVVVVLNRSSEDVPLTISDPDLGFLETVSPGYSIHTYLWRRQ
- MEASUREMENT DESCRIPTION: Compound tested for inhibitory activity against beta-glucocerebrosidase enzyme
QUANTITY: IC50 (µM)
Please reply with the bare figure in µM and do not write the unit itself.

>>> reported_measurement("CCCCCCCCCC(=O)N[C@H](CNC1CC(CO)C(O)C(O)C1O)[C@H](O)c1ccccc1 (stereo partly drawn)")
10
>>> reported_measurement("CCCCCCCCCC(=O)N[C@@H](CNC1CC(CO)C(O)C(O)C1O)[C@@H](O)c1ccccc1 (stereo partly drawn)")
20

INPUT: State measured IC50 of the compound CCCCCCCCCC(=O)N[C@H](CNC1CC(CO)C(O)C(O)C1O)[C@@H](O)c1ccccc1 (stereo partly drawn) with Lysosomal acid glucosylceramidase (Mus musculus, UniProt P17439).
OUTPUT: 7
